Listed molecules paired with reported growth
tested on: HCT-15 colon; assay: NCI-60 one-dose screen, 48 h (100 = growth as untreated, 0 = no growth, -100 = all killed); details: 10 µM unless noted
Compounds without any hit were thinned out: in the full panel of roughly 83,000, 20% have a hit.
Write it as a number; the unit % goes unstated.

[in] Test system HCT-15 colon; read-out growth; what value for O=C(NNc1nc2cc(F)ccc2n2c(CN3CCCC3)ccc12)c1cnccn1 ?
[out] 23

[in] Test system HCT-15 colon; read-out growth; what value for COc1ccc(N2C(=O)c3cc(Cl)ccc3NC2SCc2ccccc2)cc1 (stereo not given) ?
[out] 82

[in] Test system HCT-15 colon; read-out growth; what value for COCCNc1ccc2ncc(C#Cc3cncc(C(=O)Nc4ccc(CN5CCN(C)CC5)c(C(F)(F)F)c4)c3)n2n1 ?
[out] -22.7

[in] Test system HCT-15 colon; read-out growth; what value for CCO/C=N/C1=C(C#N)C(c2ccc(Cl)cc2)c2sc3c(CC)cccc3c2O1 (stereo not given) ?
[out] 23.3

[in] Test system HCT-15 colon; read-out growth; what value for CCNC(=O)N1CCc2cc(OC)c(OCCc3ccc(OC)cc3)cc2C1c1ccc(OC)cc1C (stereo not given) ?
[out] 10.8

[in] Test system HCT-15 colon; read-out growth; what value for COC(=O)/C=C/c1c(C2(C)NC(=O)c3ccccc3N2)c(=O)oc2ccc(Cl)cc12 (stereo not given) ?
[out] 91.4
